Just for reference, patent US20260091020A1 is where these values come from.

# test_description: Plasma PK of ANEB-001 and THC, 30 mg or 10 mg oral Compound 1 with 21 mg THC (Example 4)
# Assay type: in vivo, human
# test_conditions: human, in vivo, 21 mg, 21 mg THC + Placebo; read-out: THC plasma AUClast, Median
quantity_measured: AUC(0-t)

compound	measured_value
CCCCCc1cc(O)c2c(c1)OC(C)(C)[C@@H]1CCC(C)=C[C@@H]21 [THC, Δ9-tetrahydrocannabinol]	9.32 ng·h/mL

###

# measurement_target: CB2 [CNR2] (Homo sapiens, UniProt P34972)
# Sequence (P34972 whole entry): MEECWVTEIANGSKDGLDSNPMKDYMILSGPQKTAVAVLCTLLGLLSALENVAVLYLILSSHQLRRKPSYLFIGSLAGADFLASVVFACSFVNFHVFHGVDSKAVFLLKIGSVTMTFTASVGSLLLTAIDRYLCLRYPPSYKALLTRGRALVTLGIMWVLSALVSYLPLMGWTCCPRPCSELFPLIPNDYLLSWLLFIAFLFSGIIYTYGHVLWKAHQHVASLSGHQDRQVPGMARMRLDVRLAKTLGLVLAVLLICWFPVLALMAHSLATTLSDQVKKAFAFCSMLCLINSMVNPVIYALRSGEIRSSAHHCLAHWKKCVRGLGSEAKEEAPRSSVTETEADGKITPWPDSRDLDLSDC
# test_description: PathHunter GPCR Biosensor cAMP assay, CNR2 antagonist mode
# test_conditions: Gi cAMP, 25 μM Forskolin; EC80 0.0048 μM CP55940
IC50 values by entry

molecule	IC50
CC(C)(CO)NC(=O)N1CC(OC(c2ccc(Cl)cc2)c2ccccc2C(F)(F)F)C1 (centres unmarked)	> 1 µM
CC(C)(NC(=O)N1CC(OC(c2ccc(Cl)cc2)c2ccccc2C(F)(F)F)C1)C(=O)O (centres unmarked)	> 1 µM
